Reference for the values: patent US20210032312A1

assayed.system: T1, human CD8 alpha (CD8A) on primary human CD8+ T cells (human, UniProt P01732 22-235)
T1 construct: whole, on cells; also called hCD8A
T1 sequence (P01732 22-235): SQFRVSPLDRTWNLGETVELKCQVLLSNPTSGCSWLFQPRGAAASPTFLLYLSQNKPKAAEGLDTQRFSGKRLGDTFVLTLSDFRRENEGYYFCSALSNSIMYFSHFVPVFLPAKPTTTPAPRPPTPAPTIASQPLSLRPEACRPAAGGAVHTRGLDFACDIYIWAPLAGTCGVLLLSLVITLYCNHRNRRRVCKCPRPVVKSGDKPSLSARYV
test.details: flow cytometry, human CD8+ T cells, 2 uM FN3
experimental.readout: Human T-cell Binding 2 uM (MFI)
Only the number, expressed in MFI, is required.

As a guide, the following entries are already answered.
binder	uom	Human T-cell Binding 2 uM (MFI)
P283AR9P1362_D2 (designed binder, FN3 domain) LPAPKNLVVSRVTEDSARLSWQRPKSGFFDSFLIQYQESEKVGEAIVLTVPGSERSYDLTGLKPGTEYTVSIYGVDVKYDIDSRPISSNPLSAIFTT	MFI	8650
P282FR9P1361_F1 (designed binder, FN3 domain) LPAPKNLVVSRVTEDSARLSWTAPDAAFDSFGIWYAEYGYSGEAIVLTVPGSERSYDLTGLKPGTEYDVAIWGVKGGVRSYPLSAIFTT	MFI	5500
P283AR9P1362_H11 (designed binder, FN3 domain) LPAPKNLVVSRVTEDSARLSWPKIQGQHFDSFLIQYQESEKVGEAIVLTVPGSERSYDLTGLKPGTEYTVSIYGVDVKYDIDSRPISSNPLSAIFTT	MFI	5730
P282DR9P1359_A7 (designed binder, FN3 domain) LPAPKNLVVSRVTEDSARLSWTAPDAAFDSFRIGYPELEKLGYGEAIVLTVPGSERSYDLTGLKPGTEYWVIIWGVKGGENSWPLSAIFTT	MFI	38400
P282FR9P1361_A5 (designed binder, FN3 domain) LPAPKNLVVSRVTEDSARLSWTAPDAAFDSFGILYYEPVDSGEAITLPVPGSERSYDLTGLKPGTEYWVVITGVKGGAPSTPLGAIFTT	MFI	32800

Lookup: # get_value(readout='Human T-cell Binding 2 uM (MFI)', item= P282DR9P1359_F11 (designed binder, FN3 domain) LPAPKNLVVSRVTEDSARLSWTAPDAAFDSFDIFYPELPIHGEAIVLTVPGSERSYDLTGLKPGTEYWVNITGVKGGDFSWPLSAIFTT )
Found: 35600

Lookup: Next: P282FR9P1361_G9 (designed binder, FN3 domain) LPAPKNLVVSRVTEDSARLSWTAPDAAFDSFGITYWESPYAGEAIVLTVPGSERSYDLTGLKPGTEYGVFILGVKGGYPSAPLSAIFTT
Found: 859

Lookup: Next: P283AR9P1362_F12 (designed binder, FN3 domain) LPAPKNLVVSRVTEDSARLSWARNITSFDSFLIQYQESEKVGEAIVLTVPGSERSYDLTGLKPGTEYTVSIYGVDVKYDIDSRPISSNPLSAIFTT
Found: 8970

Lookup: Next: P282AR9P1356_A10 (designed binder, FN3 domain) LPAPKNLVVSRVTEDSARLSWHTATNSFDSFLIQYQESEKVGEAIVLTVPGSERSYDLTGLKPGTEYTVSIYGVDVDYNPTGRPVSSNPLSAIFTT
Found: 4260
